Data credit: the DeepSol protein solubility set

experimentSummary: soluble on expression in E. coli; label from the status in PepcDB or PDB records
measurementType: soluble on expression in E. coli

Field: example entries. Status: answers known.
>  <monomerSequence>
MITAYIALGSNLNTPVEQLHAALKAISQLSNTHLVTTSSFYKSKPLGPQDQPDYVNAVAKIETELSPLKLLDELQRIENEQGRVRLRRWGERTLDLDILLYGNEIIQNERLTIPHYDMHNREFVIVPLFEIASDLVLPNSQIITELVKQFADHKMIKLNP

>  <valueObserved>
soluble

$$$$
>  <monomerSequence>
MSDLYVTKEGDMVDAICWRYYAKGQQALAVERVYAANFGLADYGPILKAGITIVLPILPYPKATPVIRIWGSQS

>  <valueObserved>
not soluble

$$$$
>  <monomerSequence>
MENKSIAIFIDAENIPAKYAKSIFDIASDYGEVIIKRIYGDWTQKNIQGWREQIAEYSLIAMQQFNFAANKNSSDMYLITEIMSIFYEKNIDIFVIVSSDSDYTSLIQKLRENKKQVIGMGLEKSIKSYVNAFSEFFYLDKDESKKEDILSKDYLRALINITEQLIDEKGRAEYAQIRTNMNRKYSDFHPQNYGFKNFRALIQKFLPKMKKFEEEREKNIYFLVKKDYESYYLEHHHHHH

>  <valueObserved>
not soluble

$$$$
>  <monomerSequence>
SGTPPGLQTDCEALLSRFQETDSVRFEDFTELWRNMKFGTIFCGRMRNLEKNMFTKEALALAWRYFLPPYTFQIRVGALYLLYGLYNTQLCQPKQKIRVALKDWDEVLKFQQDLVNAQHFDAAYIFRKLRLDRAFHFTAMPKLLSYRMKKKIHRAEVTEEFKDPSDRVMKLITSDVLEEMLNVHDHYQNMKHVISVDKSKPDKALSLIKDDFFDNIKNIVLEHQQWHKDRKNPSLKSKTNDGEEKMEGNSQETERCERAESLAKIKSKAFSVVIQASKSRRHRQVKLDSSDSDSASGQGQVKATRKKEKKERLKPAGRKMSLRNKGNVQNIHKEDKPLSLSMPVITEEEENESLSGTEFTASKKRRKH

>  <valueObserved>
soluble

$$$$
>  <monomerSequence>
MRVMAKIELLAKFTQIALPNSHPLLKKVLNYAKKHFSQCHMLSSSLLILNDTECFKKNYLLNWVYHALECVHEKDISAHSLEEVLQKSHLPIRIKIMAQNTLLEKIEVKVLTFGAEYALFITKHPIAKRFLRQKFSGCVFLETQDELHIRGDSERFWELIVTLNENRIVHNACLDFIYPNGFGKDSYTTMAERKLKECYKTLGFIKHEDFSEVKKRYLELAKTYHPDLCDLKEKKALYAKRFAIIQEAYRHIKKHALEHHHHHH

>  <valueObserved>
soluble

$$$$

Next up:
Query "MGSDKIHHHHHHMQRIAENYDALPRQLKNVATYIEQHRSSVMVDRTSDIAASCGVHPSAVVRFAQRFGFSGFSDLQAVFRQAYTGQGSSSPSYQQRIRKLIDEKPGALSGGSVAREFIAASRGGLEELEAGLDDKQFDAAVKMLQQADNIYVIGVRRSFPVASYIVYALQHTPKRVHLVSGFGGMYREQIRSVKKGDVVIAISFAPYGKETQYCLRVAHHHQARTLVITDSQLSPLARYATTQLYVKEGSAFAFRSLTSTICLCQALFIALAYKLELNVEESKDTGGYDD" yields soluble on expression in E. coli of not soluble
